measured target: full-length beta-catenin (Axin site) (Homo sapiens, UniProt P35222)
Construct: 15 nM full-length beta-catenin, 20 nM FITC labeled peptide in buffer
Sequence (P35222 1-781): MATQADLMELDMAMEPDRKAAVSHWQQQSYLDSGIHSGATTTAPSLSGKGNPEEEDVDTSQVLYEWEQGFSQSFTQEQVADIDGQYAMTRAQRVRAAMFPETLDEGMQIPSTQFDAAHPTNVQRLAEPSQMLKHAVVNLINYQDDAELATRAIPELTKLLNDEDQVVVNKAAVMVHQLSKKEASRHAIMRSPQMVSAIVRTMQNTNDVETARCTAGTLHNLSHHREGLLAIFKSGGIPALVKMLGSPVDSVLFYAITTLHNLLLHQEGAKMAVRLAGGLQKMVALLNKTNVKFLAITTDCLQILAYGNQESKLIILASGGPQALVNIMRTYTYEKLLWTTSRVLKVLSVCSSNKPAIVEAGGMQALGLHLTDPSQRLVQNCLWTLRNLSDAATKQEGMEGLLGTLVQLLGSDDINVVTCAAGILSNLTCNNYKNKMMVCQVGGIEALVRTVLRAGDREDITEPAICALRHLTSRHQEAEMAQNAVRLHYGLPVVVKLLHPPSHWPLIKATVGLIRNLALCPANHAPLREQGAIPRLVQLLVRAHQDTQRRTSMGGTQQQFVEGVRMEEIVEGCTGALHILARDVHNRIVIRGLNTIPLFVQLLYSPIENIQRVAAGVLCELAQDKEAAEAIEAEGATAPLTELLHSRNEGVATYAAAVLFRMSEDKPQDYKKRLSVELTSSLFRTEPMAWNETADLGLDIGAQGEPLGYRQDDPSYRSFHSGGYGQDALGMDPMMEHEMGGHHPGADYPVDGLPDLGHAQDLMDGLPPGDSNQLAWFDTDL
experiment description: Competition fluorescence polarization assay (Axin site probe)
Format: binding
measurement parameters: competition fluorescence polarization, Table 2; read-out: in vitro FP EC50
Protocol: FIG. 1. […] Peptide solutions were prepared in buffer (50 mM Tris pH 8.0, 250 mM NaCl, 2% glycerol, 0.5 mM EDTA, 0.02% w/v sodium azide) using a 3-fold serial dilution from 5 μM. […] Equal volume of the titrated peptide was added to the plate and incubated protected from light for 15 minutes prior to read. Reads were performed on a Spectramax M5 (Molecular Devices) in duplicate. FIG. 7. […] Reads were performed on a Spectramax M5 (Molecular Devices) in duplicate. […]
pEC50: −log10 of the molar value. Numbered stars: 1 amine (or outer) side, 2 acyl side, 3 side chain; on linkers, the order of the positions; unused ones are H or OH. Bridge positions count the residues as written; N and C are the ends. Square brackets hold non-standard residues; d marks the D form. Peptide text beside a SMILES is read from it. dαMeOrn(Me) = CN(CCC[C@@](C)(N[*:1])C(=O)[*:2])[*:3]; dαMeDab(Me) = CN(CC[C@@](C)(N[*:1])C(=O)[*:2])[*:3]; X2 = O=C(OCC=CCOC(=O)[*:2])[*:1]
result type: pEC50

Example entries begin here.
[
  {
    "molecule": "CC[C@H](C)[C@@H]1NC(=O)[C@H](Cc2c[nH]cn2)NC(=O)[C@H](C)NC(=O)[C@H](CC(=O)O)NC(=O)[C@H](CC(C)C)NC(=O)[C@H]([C@@H](C)CC)NC(=O)[C@](C)(NC(=O)[C@H](C)NC(C)=O)CCCCCCC=CCOC(=O)N2CC[C@@](C(=O)N[C@@H](CCCNC(=N)N)C(=O)N[C@](C)(C(=O)N[C@@H](Cc3c[nH]c4ccccc34)C(N)=O)C(C)C)(C2)NC1=O [FP0632c, Ac-A-R8-I-L-D-A-H-I-MB-R-aMeV-W-NH2]",
    "measured target": "full-length beta-catenin (Axin site) (Homo sapiens, UniProt P35222)",
    "pEC50": "6.30 to 7.00"
  },
  {
    "molecule": "CC[C@H](C)[C@@H]1NC(=O)[C@H](Cc2c[nH]cn2)NC(=O)[C@H](C)NC(=O)[C@H](CC(=O)O)NC(=O)[C@H](CC(C)C)NC(=O)[C@H]([C@@H](C)CC)NC(=O)[C@](C)(NC(=O)[C@H](C)NC(C)=O)CCCN(C)C(=O)OCC=CCOC(=O)N(C)CC[C@](C)(C(=O)N[C@@H](CCCNC(=N)N)C(=O)N[C@H](C(=O)N[C@@H](Cc2c[nH]c3ccccc23)C(N)=O)C(C)C)NC1=O [FP0588c, Ac-A-MI-I-L-D-A-H-I-MG-R-V-W-NH2] (Ac-A[dαMeOrn(Me)]ILDAHI[dαMeDab(Me)]RVW-NH2; linker 2-9 via X2)",
    "measured target": "full-length beta-catenin (Axin site) (Homo sapiens, UniProt P35222)",
    "pEC50": "> 7.00"
  }
]

Continue with the next molecule.
Exercise: I'd like to know its pEC50. The molecule in question is CC[C@H](C)[C@@H]1NC(=O)[C@@](C)(NC(=O)[C@H](CCC(N)=O)NC(=O)[C@@H]2CCCN2C(C)=O)CCCCC=CCOC(=O)N2CC[C@@](C(=O)N[C@@H](Cc3c[nH]cn3)C(=O)N[C@H](C(=O)N[C@@H](CCCNC(=N)N)C(=O)N[C@@H](CCCNC(=N)N)C(=O)N[C@H](C(=O)N[C@@H](Cc3c[nH]c4ccccc34)C(=O)N[C@@H](CCCNC(=N)N)C(N)=O)C(C)C)C(C)C)(C2)NC(=O)[C@H](CC(=O)O)NC(=O)[C@H](CC(C)C)NC1=O (single isomer, unassigned) [FP0761c, Ac-P-Q-S6-I-L-D-MB-H-V-R-R-V-W-R-NH2]
Key: 6.30 to 7.00

Origin of the recorded values: patent US11198713B2
